Test system: MV4-11 cells
Assay: MV4-11 cell proliferation assay (CTG cell viability)
Type: cell-based
Details: Homo sapiens, 120 hours, read-out: CTG cell viability assay_MV4-11: IC50
Reported pIC50 is given for each of the following molecules.
Note on units: pIC50 is unitless, being -log10 of a concentration expressed in mol/L.

# count of solved cases: 3
[[record]]
molecule = "Cn1cc(-c2cccnc2[C@@H](NC(=O)c2ccc3c(c2)CN([C@H]2CCC(=O)NC2=O)C3=O)C2CCC2)cn1 (single isomer, unassigned) [Compound 84]"
assay_result = 7.62

[[record]]
molecule = "O=C1CCC(N2Cc3cc(C(=O)N[C@H](c4ccc(Cl)cc4)C4CC(F)(F)C4)ccc3C2=O)C(=O)N1 (stereo in doubt) [Compound 35]"
assay_result = 6.70

[[record]]
molecule = "O=C1CCC(N2Cc3cc(C(=O)N[C@H](c4ncc(Cl)cc4Cl)C4CCC4)ccc3C2=O)C(=O)N1 (stereo in doubt) [Compound 79]"
assay_result = 6.75


Q: Dear colleague, I am looking for the recorded pIC50 of the following molecule: O=C1CCC(N2Cc3cc(C(=O)NC(c4ccc(F)cc4)C4CC(F)(F)C4)ccc3C2=O)C(=O)N1 (stereo not shown) [Compound 4]
A: 6.58

Q: Dear colleague, I am looking for the recorded pIC50 of the following molecule: O=C1CCC(N2Cc3cc(C(=O)N[C@H](c4ncccc4Cl)C4(F)CCC4)ccc3C2=O)C(=O)N1 (stereo in doubt) [Compound 87]
A: 6.88

Q: Dear colleague, I am looking for the recorded pIC50 of the following molecule: O=C1CCC(N2Cc3cc(C(=O)N[C@H](c4ccc(F)cn4)C4CCC4)ccc3C2=O)C(=O)N1 (stereo in doubt) [Compound 78]
A: 6.75

Q: Dear colleague, I am looking for the recorded pIC50 of the following molecule: O=C1CCC(N2Cc3cc(C(=O)N[C@H](c4ccc(F)cn4)C4(F)CCC4)ccc3C2=O)C(=O)N1 (stereo in doubt) [Compound 86]
A: 6.85

Q: Dear colleague, I am looking for the recorded pIC50 of the following molecule: O=C1CCC(N2Cc3cc(C(=O)N[C@H](c4ccc(Cl)cc4)C4CCC4)ccc3C2=O)C(=O)N1 (stereo in doubt) [Compound 36]
A: 6.89

Q: Dear colleague, I am looking for the recorded pIC50 of the following molecule: O=C1CCC(N2Cc3cc(C(=O)N[C@H](c4ncc(Cl)cc4F)C4(F)CCC4)ccc3C2=O)C(=O)N1 (stereo in doubt) [Compound 89]
A: 6.70

Q: Dear colleague, I am looking for the recorded pIC50 of the following molecule: O=C1CC[C@H](N2Cc3cc(C(=O)N[C@H](c4ccc(Cl)cn4)C4CCC4)ccc3C2=O)C(=O)N1 (single isomer, unassigned) [Compound 82]
A: 7.22

----------
Reported Dmax is given for each of the following molecules.
Molecular target: HiBiT tagged CK1α (Homo sapiens, UniProt P48729+Q96SW2)
Sequence (P48729 whole entry): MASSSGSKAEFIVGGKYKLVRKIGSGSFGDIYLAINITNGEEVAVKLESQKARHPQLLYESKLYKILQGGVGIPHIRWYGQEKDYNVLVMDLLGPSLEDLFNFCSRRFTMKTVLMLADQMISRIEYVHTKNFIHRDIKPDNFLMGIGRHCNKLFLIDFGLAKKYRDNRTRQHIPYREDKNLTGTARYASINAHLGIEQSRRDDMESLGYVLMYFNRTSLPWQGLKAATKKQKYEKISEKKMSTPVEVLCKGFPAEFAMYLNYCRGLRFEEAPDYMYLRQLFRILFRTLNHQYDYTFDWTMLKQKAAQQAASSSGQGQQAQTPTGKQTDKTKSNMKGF
Sequence (Q96SW2 whole entry): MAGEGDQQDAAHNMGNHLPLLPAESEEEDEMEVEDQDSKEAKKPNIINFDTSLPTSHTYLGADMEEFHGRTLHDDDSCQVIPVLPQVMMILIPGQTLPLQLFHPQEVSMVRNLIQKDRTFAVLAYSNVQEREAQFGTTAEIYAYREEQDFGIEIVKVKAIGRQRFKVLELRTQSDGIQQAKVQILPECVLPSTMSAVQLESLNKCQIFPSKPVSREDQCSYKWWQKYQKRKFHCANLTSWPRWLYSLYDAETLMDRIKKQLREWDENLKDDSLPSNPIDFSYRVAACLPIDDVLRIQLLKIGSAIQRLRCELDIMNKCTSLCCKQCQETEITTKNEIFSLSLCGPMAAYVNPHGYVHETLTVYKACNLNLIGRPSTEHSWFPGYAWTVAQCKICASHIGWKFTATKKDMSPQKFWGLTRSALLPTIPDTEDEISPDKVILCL
Sequence (Q16531 whole entry partner): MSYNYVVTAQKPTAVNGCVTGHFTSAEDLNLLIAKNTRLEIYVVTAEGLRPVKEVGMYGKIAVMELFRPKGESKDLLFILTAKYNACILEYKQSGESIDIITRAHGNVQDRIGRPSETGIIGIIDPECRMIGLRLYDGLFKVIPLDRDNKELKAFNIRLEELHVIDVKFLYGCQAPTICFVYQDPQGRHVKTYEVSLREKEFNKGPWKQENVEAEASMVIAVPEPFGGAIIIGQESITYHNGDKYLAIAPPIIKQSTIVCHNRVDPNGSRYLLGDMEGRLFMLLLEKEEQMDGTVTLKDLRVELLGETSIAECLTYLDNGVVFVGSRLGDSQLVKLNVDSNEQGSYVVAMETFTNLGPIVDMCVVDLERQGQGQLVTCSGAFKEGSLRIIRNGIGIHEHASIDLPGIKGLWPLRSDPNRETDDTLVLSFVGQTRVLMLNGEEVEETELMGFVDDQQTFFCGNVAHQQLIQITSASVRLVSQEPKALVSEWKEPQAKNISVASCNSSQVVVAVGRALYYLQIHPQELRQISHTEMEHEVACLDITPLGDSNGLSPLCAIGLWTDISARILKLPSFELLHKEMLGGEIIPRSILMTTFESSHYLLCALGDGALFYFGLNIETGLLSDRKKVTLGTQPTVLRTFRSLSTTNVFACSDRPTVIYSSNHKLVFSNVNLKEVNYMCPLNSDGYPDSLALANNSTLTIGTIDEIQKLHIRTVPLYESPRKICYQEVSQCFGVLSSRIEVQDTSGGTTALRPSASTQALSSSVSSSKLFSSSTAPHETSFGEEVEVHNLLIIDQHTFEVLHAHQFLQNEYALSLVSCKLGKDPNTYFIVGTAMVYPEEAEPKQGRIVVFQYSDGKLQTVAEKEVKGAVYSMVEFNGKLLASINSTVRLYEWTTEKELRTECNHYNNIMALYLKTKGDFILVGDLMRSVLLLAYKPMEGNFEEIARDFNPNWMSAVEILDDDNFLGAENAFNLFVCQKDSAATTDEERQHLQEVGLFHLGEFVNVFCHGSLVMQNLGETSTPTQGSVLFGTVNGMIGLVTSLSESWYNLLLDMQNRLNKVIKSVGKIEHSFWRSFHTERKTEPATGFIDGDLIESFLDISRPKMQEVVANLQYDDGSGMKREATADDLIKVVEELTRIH
Assay: CK1α degradation assay (HiBiT assay)
Format: cell-based
Conditions: HT-1080, HT-1080 cells, 20 hours; maximum CK1α degradation
Write the number in % without appending the unit.

[[record]]
molecule = "O=C1CCC(N2Cc3cc(C(=O)NC(c4ccc(F)cc4Cl)C4CCC4)ccc3C2=O)C(=O)N1 (stereo not shown) [Compound 19]"
assay_result = 69.6

[[record]]
molecule = "O=C1CCC(N2Cc3cc(C(=O)NC(c4ncccc4Cl)C4CC4)ccc3C2=O)C(=O)N1 (stereo not shown) [Compound 16]"
assay_result = 62.2

[[record]]
molecule = "O=C1CCC(N2Cc3cc(C(=O)NC(c4ccc(F)cc4)C4CC(F)(F)C4)ccc3C2=O)C(=O)N1 (stereo not shown) [Compound 4]"
assay_result = 63.4

[[record]]
molecule = "O=C1CCC(N2Cc3cc(C(=O)N[C@H](c4ccccc4Cl)C4CC4)ccc3C2=O)C(=O)N1 (stereo in doubt) [Compound 12]"
assay_result = 64.7

[[record]]
molecule = "O=C1CCC(N2Cc3cc(C(=O)N[C@H](c4ncccc4Cl)C4(F)CCC4)ccc3C2=O)C(=O)N1 (stereo in doubt) [Compound 87]"
assay_result = 59.8


Q: Short answer please: Dmax, HiBiT tagged CK1α (Homo sapiens, UniProt P48729+Q96SW2), entry O=C1CC[C@H](N2Cc3cc(C(=O)N[C@H](c4ccc(F)c(F)c4)C4CCC4)ccc3C2=O)C(=O)N1 (racemic) [Compound 46]
A: 54.6

Q: Short answer please: Dmax, HiBiT tagged CK1α (Homo sapiens, UniProt P48729+Q96SW2), entry O=C1CCC(N2Cc3cc(C(=O)NC(c4ccc(F)cc4F)C4CC4)ccc3C2=O)C(=O)N1 (stereo not shown) [Compound 1]
A: 66.2
